Give pIC50 for every item shown.
Target: T1, recombinant human CTLA4 protein with human IgG1 Fc tag at the C-terminus (Acro biosystems, Cat#CT4-H5255) (human, UniProt P16410 37-162)
T1 construct: bought protein; also called human CTLA4-Fc; CTLA4-Fc; not shown: human IgG1 Fc tag at the C-terminus
T1 sequence (looked up): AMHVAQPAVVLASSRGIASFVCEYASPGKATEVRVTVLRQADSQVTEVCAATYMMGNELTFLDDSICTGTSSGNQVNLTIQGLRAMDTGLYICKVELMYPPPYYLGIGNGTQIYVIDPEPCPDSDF
Assay: competitive ELISA: antibody pre-mixed with biotin human CTLA4-Fc (65 ng/ml), added to plate coated with the benchmark; competitor: coated Yervoy
# pIC50 = -log10(concentration in molar units)

Sure, the documented pIC50 for mouse anti-CTLA4 monoclonal antibody D1H3 (antibody, V domains shown, mouse mAb purified from hybridoma supernatant) VH: QVQLQQPGAELVNPGASVKLSCKASGYTFTSYWLHWVKQRPGRGLEWIGRIDPNRGTIYYNEKFNNKATVTVDKPSNTAYMQLSRLTLEDSAVYYCARGGSNFYAMDYWGQGTSVTVSS VL: DIQMTQSPASLSASVGETVTITCRTSENIYSYLAWYQQKQGESPQLLVYNAKTLAEGVPSRFSGSGSGTQFSLKINSLQPEDFGSYYCQNHDGIPFTFGSGTKLEIK is 8.73

Sure, the documented pIC50 for mouse anti-CTLA4 monoclonal antibody D1A7 (antibody, V domains shown, mouse mAb purified from hybridoma supernatant) VH: QVTLKESGPGMLQPSQTLSLTCSFSGFSLSSSKLGVGWIRQPAGKGLEWLAHIWWNDDNYYVPSLKSRLTISKDTSNNQVFLKITNVDAADTATYYCVQVPYYTTQPWFAYWGQGTLVTVSA VL: DIQMTQSPASLSASVGETVTITCRASGNIHNYLAWYLQNQGRSPQLLVYNTETLADGVSSRFSGSGSGTQYFLKISSLQPEDFGTYYCQHLWSTPWTFGGGTKLEIK is 9.35

Sure, the documented pIC50 for mouse anti-CTLA4 monoclonal antibody D1B6 (antibody, V domains shown, mouse mAb purified from hybridoma supernatant) VH: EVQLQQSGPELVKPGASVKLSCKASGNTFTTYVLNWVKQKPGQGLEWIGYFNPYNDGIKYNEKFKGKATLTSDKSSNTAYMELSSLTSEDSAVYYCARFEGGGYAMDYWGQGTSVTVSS VL: DIVLTQSPASLAVSLGQRATISCRASQSVGTSRNTYIHWYQQKLGQPPKLLIKYASDLESGVPARFSGSGSGTDFTLNIHPVEEEDTATYYCQHSWEIPYTFGGGTKLEIK is 9.21
